# Test system: p-IKKa levels in L363 (NIK translocated multiple myeloma) cells
# test: Effect of compounds on p-IKKa levels in L363 (NIK translocated multiple myeloma) cells (AlphaLISA SureFire Ultra p-IKKa Ser176/180)
# Format: cell-based, human
# assay context: Homo sapiens, L-363, p-IKKa levels in L363 cells; average if tested more than once; read-out: Assay 2 IC50
pIC50: −log10 of the molar value.
readout: pIC50

{"compound": "CN1CC[C@@](O)(c2cccc(-c3nc(-c4ccnc(NCc5ccn(C)n5)n4)cs3)c2)C1=O", "readout": "pIC50", "result": "< 6.30"}
{"compound": "CN1CC[C@@](O)(c2cccc(-c3nc(-c4ccnc(Nc5cnn6ccccc56)n4)cs3)c2)C1=O", "readout": "pIC50", "result": "> 7.00"}
{"compound": "COc1nn(CC(F)(F)F)cc1Nc1nccc(-c2csc(-c3cccc([C@]4(O)CCN(C)C4=O)c3)n2)n1", "readout": "pIC50", "result": "> 7.00"}
{"compound": "COCCn1nc(C)cc1Nc1nccc(-c2csc(-c3cccc([C@]4(O)CCN(C)C4=O)c3)n2)n1", "readout": "pIC50", "result": "< 6.30"}
{"compound": "CN1CC[C@@](O)(c2cccc(-c3nc(-c4ccnc(Nc5cn(CC6CCC6)cn5)n4)cs3)c2)C1=O", "readout": "pIC50", "result": "< 6.30"}

Fill in pIC50 for each of the 2 compounds listed.
1. CN1C(=O)[C@](O)(c2cncc(-c3csc(-c4ccnc(Nc5ccn(C)n5)n4)n3)c2)C[C@H]1C(F)(F)F (single isomer, unassigned)
2. CN1CC[C@@](O)(c2cccc(-c3nc(-c4ccnc(NC5(c6ncccn6)CC5)n4)cs3)c2)C1=O

Reply |
6.30 to 7.00
< 6.30
